Target: RyR1 (Oryctolagus cuniculus, UniProt P11716)
Sequence (P11716 whole entry): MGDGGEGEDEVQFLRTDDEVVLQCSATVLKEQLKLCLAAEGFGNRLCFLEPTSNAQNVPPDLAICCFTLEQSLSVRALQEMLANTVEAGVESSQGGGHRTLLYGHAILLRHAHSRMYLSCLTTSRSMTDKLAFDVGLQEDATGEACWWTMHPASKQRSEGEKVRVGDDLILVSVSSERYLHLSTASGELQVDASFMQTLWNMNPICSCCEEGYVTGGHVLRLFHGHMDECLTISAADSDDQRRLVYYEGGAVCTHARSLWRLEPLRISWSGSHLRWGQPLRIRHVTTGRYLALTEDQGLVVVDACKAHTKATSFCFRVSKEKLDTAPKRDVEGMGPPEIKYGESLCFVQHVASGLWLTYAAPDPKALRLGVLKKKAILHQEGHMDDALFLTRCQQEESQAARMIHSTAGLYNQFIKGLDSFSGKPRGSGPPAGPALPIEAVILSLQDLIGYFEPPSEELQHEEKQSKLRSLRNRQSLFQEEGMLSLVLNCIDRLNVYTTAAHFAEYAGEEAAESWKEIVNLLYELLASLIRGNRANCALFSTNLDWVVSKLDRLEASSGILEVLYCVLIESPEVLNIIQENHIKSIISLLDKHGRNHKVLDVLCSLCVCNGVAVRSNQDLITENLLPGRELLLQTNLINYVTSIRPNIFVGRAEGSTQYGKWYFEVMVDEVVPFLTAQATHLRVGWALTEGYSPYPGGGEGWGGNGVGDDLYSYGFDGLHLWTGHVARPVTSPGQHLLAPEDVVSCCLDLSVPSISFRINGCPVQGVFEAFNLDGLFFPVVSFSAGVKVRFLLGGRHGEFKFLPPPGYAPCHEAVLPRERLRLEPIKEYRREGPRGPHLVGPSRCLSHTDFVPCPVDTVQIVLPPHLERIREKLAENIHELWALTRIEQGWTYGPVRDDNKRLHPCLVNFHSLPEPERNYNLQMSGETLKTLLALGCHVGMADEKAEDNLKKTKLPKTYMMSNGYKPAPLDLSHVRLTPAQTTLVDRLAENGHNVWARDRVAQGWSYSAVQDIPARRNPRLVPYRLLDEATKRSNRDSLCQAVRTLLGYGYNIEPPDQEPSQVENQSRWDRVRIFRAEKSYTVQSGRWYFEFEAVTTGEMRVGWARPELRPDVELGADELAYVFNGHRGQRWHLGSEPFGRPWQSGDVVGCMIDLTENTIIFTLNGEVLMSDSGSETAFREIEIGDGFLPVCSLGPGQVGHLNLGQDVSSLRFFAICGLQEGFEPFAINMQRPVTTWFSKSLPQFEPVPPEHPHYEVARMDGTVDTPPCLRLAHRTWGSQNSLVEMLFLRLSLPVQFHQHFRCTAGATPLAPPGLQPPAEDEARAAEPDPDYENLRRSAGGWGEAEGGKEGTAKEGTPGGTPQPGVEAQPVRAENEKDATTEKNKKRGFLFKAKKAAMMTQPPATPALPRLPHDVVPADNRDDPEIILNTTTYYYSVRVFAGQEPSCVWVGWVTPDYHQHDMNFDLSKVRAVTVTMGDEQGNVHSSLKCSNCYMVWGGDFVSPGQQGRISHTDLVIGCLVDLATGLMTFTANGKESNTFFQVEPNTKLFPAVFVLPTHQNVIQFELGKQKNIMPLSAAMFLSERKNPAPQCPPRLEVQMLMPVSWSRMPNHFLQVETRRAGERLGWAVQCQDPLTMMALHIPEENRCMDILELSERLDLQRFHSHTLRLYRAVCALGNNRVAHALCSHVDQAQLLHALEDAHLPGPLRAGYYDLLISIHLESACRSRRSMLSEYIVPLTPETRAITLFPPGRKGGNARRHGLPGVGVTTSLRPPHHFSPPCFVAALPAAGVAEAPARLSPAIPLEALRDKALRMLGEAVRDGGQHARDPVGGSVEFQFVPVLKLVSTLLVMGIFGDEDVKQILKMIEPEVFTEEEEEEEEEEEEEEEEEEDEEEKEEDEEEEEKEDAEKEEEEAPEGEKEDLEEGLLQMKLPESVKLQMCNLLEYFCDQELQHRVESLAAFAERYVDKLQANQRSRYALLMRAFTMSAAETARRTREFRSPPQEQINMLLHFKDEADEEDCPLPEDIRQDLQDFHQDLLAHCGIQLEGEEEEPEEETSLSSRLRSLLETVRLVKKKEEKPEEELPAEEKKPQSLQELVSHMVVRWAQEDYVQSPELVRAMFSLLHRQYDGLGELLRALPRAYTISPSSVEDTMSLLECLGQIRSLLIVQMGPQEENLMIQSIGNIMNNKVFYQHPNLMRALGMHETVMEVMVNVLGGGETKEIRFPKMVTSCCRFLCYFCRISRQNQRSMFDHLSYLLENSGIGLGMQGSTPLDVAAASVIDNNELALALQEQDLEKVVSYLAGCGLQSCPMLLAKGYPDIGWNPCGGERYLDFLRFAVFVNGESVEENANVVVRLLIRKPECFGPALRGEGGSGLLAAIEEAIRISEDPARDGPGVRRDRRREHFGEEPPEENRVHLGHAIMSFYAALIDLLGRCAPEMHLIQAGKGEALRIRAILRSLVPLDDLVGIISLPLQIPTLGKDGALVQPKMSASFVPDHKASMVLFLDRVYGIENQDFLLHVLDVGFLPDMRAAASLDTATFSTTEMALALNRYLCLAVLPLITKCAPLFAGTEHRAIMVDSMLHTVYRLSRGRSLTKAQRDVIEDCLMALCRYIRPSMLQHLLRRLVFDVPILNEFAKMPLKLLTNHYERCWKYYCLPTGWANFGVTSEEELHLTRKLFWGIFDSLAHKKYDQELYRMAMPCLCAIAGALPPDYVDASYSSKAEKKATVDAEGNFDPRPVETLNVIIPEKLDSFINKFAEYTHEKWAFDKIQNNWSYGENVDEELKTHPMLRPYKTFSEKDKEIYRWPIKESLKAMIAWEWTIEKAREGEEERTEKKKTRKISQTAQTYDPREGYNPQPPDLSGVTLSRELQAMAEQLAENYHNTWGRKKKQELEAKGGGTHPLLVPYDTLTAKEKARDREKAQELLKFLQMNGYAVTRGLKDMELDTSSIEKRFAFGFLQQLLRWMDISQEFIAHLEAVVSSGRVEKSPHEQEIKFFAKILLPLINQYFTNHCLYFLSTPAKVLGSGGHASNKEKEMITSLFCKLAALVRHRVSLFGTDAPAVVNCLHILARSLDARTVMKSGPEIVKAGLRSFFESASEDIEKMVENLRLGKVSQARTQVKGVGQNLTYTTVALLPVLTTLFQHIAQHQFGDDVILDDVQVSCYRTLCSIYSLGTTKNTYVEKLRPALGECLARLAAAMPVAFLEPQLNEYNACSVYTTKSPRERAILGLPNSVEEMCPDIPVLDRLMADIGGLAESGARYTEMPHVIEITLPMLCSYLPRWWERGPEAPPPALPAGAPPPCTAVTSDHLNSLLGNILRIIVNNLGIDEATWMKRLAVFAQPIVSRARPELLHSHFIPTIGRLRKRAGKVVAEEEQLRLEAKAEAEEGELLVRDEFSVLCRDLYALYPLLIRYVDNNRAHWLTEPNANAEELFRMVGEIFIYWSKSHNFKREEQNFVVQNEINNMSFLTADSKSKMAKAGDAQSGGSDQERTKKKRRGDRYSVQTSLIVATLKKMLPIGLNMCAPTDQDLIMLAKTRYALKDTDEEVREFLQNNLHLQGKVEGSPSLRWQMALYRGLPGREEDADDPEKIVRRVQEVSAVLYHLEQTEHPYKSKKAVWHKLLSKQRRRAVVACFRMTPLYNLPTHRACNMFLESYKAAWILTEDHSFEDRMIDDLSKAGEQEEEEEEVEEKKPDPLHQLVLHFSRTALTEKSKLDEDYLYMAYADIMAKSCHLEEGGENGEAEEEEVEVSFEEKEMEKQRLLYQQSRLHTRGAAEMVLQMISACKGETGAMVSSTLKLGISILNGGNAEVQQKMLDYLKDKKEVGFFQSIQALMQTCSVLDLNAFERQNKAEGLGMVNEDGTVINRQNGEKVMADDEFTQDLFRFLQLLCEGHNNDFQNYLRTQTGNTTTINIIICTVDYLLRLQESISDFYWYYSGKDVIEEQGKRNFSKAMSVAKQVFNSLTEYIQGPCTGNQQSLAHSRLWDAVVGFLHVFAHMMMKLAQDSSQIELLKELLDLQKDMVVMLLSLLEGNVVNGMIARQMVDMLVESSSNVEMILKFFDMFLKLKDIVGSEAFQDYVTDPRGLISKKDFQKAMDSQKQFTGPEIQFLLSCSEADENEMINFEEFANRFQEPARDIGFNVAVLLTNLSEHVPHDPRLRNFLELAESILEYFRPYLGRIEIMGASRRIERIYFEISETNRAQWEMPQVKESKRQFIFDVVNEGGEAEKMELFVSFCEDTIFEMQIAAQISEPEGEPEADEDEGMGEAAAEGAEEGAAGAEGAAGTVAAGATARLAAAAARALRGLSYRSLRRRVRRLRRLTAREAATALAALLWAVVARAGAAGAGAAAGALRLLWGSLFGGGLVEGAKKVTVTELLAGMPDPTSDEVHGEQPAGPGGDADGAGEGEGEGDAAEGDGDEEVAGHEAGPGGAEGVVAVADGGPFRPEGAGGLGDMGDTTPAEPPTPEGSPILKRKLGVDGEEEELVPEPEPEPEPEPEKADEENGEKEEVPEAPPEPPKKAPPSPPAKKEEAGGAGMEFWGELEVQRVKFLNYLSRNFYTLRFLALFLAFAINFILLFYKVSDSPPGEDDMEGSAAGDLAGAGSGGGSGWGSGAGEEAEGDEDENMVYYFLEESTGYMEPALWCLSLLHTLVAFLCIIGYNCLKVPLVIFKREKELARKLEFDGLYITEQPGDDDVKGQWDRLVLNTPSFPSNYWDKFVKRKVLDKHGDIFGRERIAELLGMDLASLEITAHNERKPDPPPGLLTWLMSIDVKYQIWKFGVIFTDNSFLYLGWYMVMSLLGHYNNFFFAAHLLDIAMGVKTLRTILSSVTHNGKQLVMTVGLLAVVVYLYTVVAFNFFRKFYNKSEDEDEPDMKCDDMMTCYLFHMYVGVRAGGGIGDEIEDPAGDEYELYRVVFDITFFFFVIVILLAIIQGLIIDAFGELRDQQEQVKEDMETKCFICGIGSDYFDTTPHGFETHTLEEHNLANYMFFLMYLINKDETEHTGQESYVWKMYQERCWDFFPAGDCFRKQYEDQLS
Sequence (P62943 2-108 partner limits assumed): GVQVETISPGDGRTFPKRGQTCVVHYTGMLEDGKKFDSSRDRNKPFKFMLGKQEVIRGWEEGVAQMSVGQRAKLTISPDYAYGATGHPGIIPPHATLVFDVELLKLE
Assay: Equilibrium [3H]Ry binding analysis on RyR1-enriched microsomal membranes
pEC50: −log10 of the molar value.
property: pEC50

>>> value_measured("O=C1NC(=O)C(Br)=C1Br [Compound 6, 2,3-dibromomaleimide]")
6.44

====

Target: UniProtKB P11716
property: IC50 (µM)

>>> value_measured("O=C1NC(=O)C(Br)=C1Br [Compound 6, 2,3-dibromomaleimide]")
3

====

enhancement of [3H]Ry binding to RyR1 compared to baseline: recorded values
Target: RyR1 (Oryctolagus cuniculus, UniProt P11716)
Assay: Equilibrium [3H]Ry binding analysis on RyR1-enriched microsomal membranes
Parameters: species or system New Zealand White rabbits
Details: at 2 μM; baseline = binding in presence of Veh alone; p < 0.05 vs Veh
property: enhancement of [3H]Ry binding to RyR1 compared to baseline

>>> value_measured("Oc1c(Br)cc(Oc2c(Br)cc(Br)cc2Br)cc1Br [Compound 18]")
"≥ 1.5 fold"
>>> value_measured("Brc1[nH]c(Br)c(Br)c1Br [Compound 31, tetrabromopyrrole]")
"≥ 1.5 fold"
>>> value_measured("Brc1[nH]c2ccccc2c1Br [Compound 14, 2,3-dibromoindole]")
"≥ 1.5 fold"
>>> value_measured("Brc1cc(Br)c(Br)[nH]1 [Compound 34, 2,3,5-tribromopyrrole]")
"≥ 1.5 fold"
>>> value_measured("CN1C(=O)C(Br)=C(Br)C1=O [Compound 28, 2,3-dibromo-N-methylmaleimide]")
"≥ 1.5 fold"
>>> value_measured("Clc1[nH]c2ccccc2c1Cl [Compound 13, 2,3-dichloroindole]")
"≥ 1.5 fold"
